Source listed as patent EP0588622B1.

test: pKa determination by sodium hydroxide titration of peroxyacid solution
Measured Endpoint: pKa

[[record]]
compound = "CCCCc1ccc(C(=O)OO)cc1 [p-bu^n perbenzoic, reference compound]"
measured_endpoint = "pKa"
measured_value = 8

[[record]]
compound = "CC1C2CCC(C2)C1C(=O)OO (stereo not shown)"
measured_endpoint = "pKa"
measured_value = 8.15

[[record]]
compound = "CCCCCCCCC(=O)OO [n-pernonanoic, n-pernonanoic acid]"
measured_endpoint = "pKa"
measured_value = 8.1

[[record]]
compound = "CC1(C(=O)OO)CC2CCC1C2 (stereo not drawn) [2 methylnorbornane-endo-2-percaboxylic]"
measured_endpoint = "pKa"
measured_value = 8.2

[[record]]
compound = "O=C(OO)C1CC2CCC1C2 (stereo not drawn) [Norbornane-endo-2-Percarboxylic]"
measured_endpoint = "pKa"
measured_value = 8.15

[[record]]
compound = "CC(CC(=O)OO)CC(C)(C)C (stereo not shown) [iso-pernonanoic, peroxy-3,5,5-trimethylhexanoic acid]"
measured_endpoint = "pKa"
measured_value = 8.1

[[record]]
compound = "O=C(OO)C12CC3CC(CC(C3)C1)C2 [Peradamantoic, Peradamantoic acid]"
measured_endpoint = "pKa"
measured_value = 7.95

